# credit: a melting point compilation (Tetko et al.; mined from patent text by program, amines drawn as free bases though some values may be those of a salt)

In this section, each of the compounds is paired with its reported melting point.

[[record]]
compound = "CCOC(=O)c1cn(CC)c2c(F)c(C(C)=O)c(F)cc2c1=O"
reading = "129 to 130 °C"

[[record]]
compound = "Cc1c2ccccc2nc2ccc3nc4ccccc4c(C)c3c12"
reading = "217 to 218 °C"

[[record]]
compound = "COc1ccc(-c2cc3c(OC)cc(OC)cc3nc2OC(C)C(=O)N(C)C)cc1 (stereo unspecified)"
reading = "54 to 55 °C"


API: the following record is the query input.
Request: Can you look up the measured melting point of `COc1cc2c(cc1Br)C(C)(C)CCC2(C)C` for me?
Result: 77 to 78 °C

====

measured metric: melting point

Solved cases (2 shown):
[[record]]
compound = "CC(C)(C)c1cc(CCc2ccccc2NC(=O)NC(C)(C)c2ccc(Cl)c(Cl)c2)cc(C(C)(C)C)c1O"
reading = "203 to 205 °C"

[[record]]
compound = "Cc1ccc(-c2nc(CCCC#N)c(C(F)(F)F)o2)cc1"
reading = "41 to 42.5 °C"


Request: Can you look up the measured melting point of `CCCCn1c2ccccc2c2cc(C(=O)O)ncc21` for me?
Result: 182 to 184 °C

Request: Can you look up the measured melting point of `CC(C)[C@H]1C(=O)OCN1C(=O)OC(C)(C)C` for me?
Result: 43 to 45 °C

Request: Can you look up the measured melting point of `C[Si](C)(C)CCOC(=O)c1ccc(F)cc1N` for me?
Result: 43 to 44 °C

Request: Can you look up the measured melting point of COc1ccc(N2CCN(c3c(C)c4c(c(OC)c3C)OC(C)C4)CC2)cc1C (stereo not drawn) for me?
Result: 94 to 96 °C

Request: Can you look up the measured melting point of `CNc1ccc(C(=O)N(CCN2CCC(C(=O)c3ccc(F)cc3)CC2)c2cccnc2)cc1` for me?
Result: 90 to 96 °C

====

measured metric: melting point

Solved cases (3 shown):
[[record]]
compound = "Cn1c(=O)oc2cc(CCO)cnc21"
reading = "142 to 144 °C"

[[record]]
compound = "COc1cc(Nc2nccc(-c3ccc(NCCN4CCCC4)nc3)n2)cc(OC)c1OC"
reading = "165 to 166 °C"

[[record]]
compound = "CCc1nc2c(N)nc3cc(CCC(N)=O)ccc3c2n1CC1CCOCC1"
reading = "197 to 199 °C"


Request: Can you look up the measured melting point of `Cc1ccc(-c2nc(N)nc(N)c2[N+](=O)[O-])o1` for me?
Result: 196 to 197 °C

Request: Can you look up the measured melting point of `CCCn1nc(C(C)C)c(C(=O)OCc2ccccc2C(=O)c2ccccc2)c1Cc1ccc(-c2ccccc2S(=O)(=O)NC(C)(C)C)c(F)c1` for me?
Result: 49 to 51 °C

Request: Can you look up the measured melting point of `Oc1ccc2c(c1O)C(=Cc1ccnc3ccccc13)c1ccccc1-2` for me?
Result: 315 °C

Request: Can you look up the measured melting point of `O=C(c1cccs1)c1ccc(Cl)cc1Cl` for me?
Result: 75 °C

Request: Can you look up the measured melting point of Nc1cc2c(Nc3ccc(F)c(Cl)c3)ncnc2cc1OCC1CCCO1 (stereo unspecified) for me?
Result: 162 to 164 °C
